Target: Delta-type opioid receptor (Rattus norvegicus, UniProt P33533)
Sequence (P33533 whole entry): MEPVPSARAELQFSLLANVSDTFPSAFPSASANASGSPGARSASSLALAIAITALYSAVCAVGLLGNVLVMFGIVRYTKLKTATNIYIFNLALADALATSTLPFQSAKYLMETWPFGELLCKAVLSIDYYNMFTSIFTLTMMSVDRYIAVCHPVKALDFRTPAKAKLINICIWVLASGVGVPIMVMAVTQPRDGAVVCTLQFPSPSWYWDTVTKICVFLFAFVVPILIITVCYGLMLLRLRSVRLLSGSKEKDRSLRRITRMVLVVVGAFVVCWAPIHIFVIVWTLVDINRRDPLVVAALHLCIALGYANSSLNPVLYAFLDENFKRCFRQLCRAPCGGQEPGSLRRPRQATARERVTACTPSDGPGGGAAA
Assay: Binding affinity for Opioid receptor delta 1 as inhibition of [3H]DADAL binding to rat brain membranes
Assay type: cell membranes, Membrane
OBSERVABLE: IC50 (nM)
Please reply with the bare figure in nM and do not write the unit itself.

Task: // returns reported IC50 for input `C=CCN1C[C@H](C)N([C@H](c2ccc(C(=O)NCC)cc2)c2cccc(OC)c2)C[C@H]1C`
Result: 150

* * *

Give measured pIC50 for each item. Keep answers brief.
Biological target: Delta-type opioid receptor (Rattus norvegicus, UniProt P33533)
Test: Binding affinity for Opioid receptor delta 1 by the inhibition of binding of [3H]DADAL in rat brain membranes.
Type: cell membranes
Please treat pIC50 as minus the base-10 logarithm of the molar concentration.

Task: // returns reported pIC50 for input `C=CCN1C[C@H](C)N([C@@H](c2ccc(C(=O)N(CCCC)CCCC)cc2)c2cccc(OC)c2)C[C@H]1C`
Result: 6.89

Task: // returns reported pIC50 for input `C=CCN1C[C@H](C)N([C@@H](c2ccc(C(=O)N(CC)CCCC)cc2)c2cccc(OC)c2)C[C@H]1C`
Result: 6.82

Task: // returns reported pIC50 for input `C=CCN1C[C@H](C)N([C@H](c2ccc(C(N)=O)cc2)c2cccc(OC)c2)C[C@H]1C`
Result: 6.35

Task: // returns reported pIC50 for input `C=CCN1C[C@H](C)N([C@@H](c2ccc(C(=O)N3CCCCC3)cc2)c2cccc(OC)c2)C[C@H]1C`
Result: 6.35

Task: // returns reported pIC50 for input `C=CCN1C[C@H](C)N([C@H](c2ccc(C(=O)N(CC)CCCC)cc2)c2cccc(OC)c2)C[C@H]1C`
Result: 8.18

Task: // returns reported pIC50 for input `C=CCN1C[C@H](C)N([C@H](c2ccc(C(=O)N(C)C)cc2)c2cccc(OC)c2)C[C@H]1C`
Result: 8.32

Task: // returns reported pIC50 for input `C=CCN1C[C@H](C)N([C@H](c2ccc(C(=O)NC(CC)CC)cc2)c2cccc(OC)c2)C[C@H]1C`
Result: 6.75

Task: // returns reported pIC50 for input `C=CCN1C[C@H](C)N([C@H](c2ccc(C(=O)N3CCCCCC3)cc2)c2cccc(OC)c2)C[C@H]1C`
Result: 8.09
